Quick list: MIC per entry.
Test system: Clostridium perfringens
Test: In vitro antibacterial activity against Clostridium perfringens 615E strain and compared to imipenem
Format: functional

Previously resolved entries follow.
| COMPOUND | OBSERVED RESULT |
| --- | --- |
| C/C(N)=N\CCO[C@H]1CCC[C@H]2C1=C(C(=O)[O-])N1C(=O)[C@H]([C@@H](C)O)[C@@H]21.[Na+] | 120 µg/mL |
| C[C@@H](O)[C@H]1C(=O)N2C(C(=O)O)=C(SCCNC=N)C[C@H]12 [IMIPENEM ANHYDROUS] | 30 µg/mL |
| C[C@@H](O)[C@H]1C(=O)N2C(C(=O)[O-])=C3[C@@H](OCCCN=[N+]=[N-])CCC[C@@H]3[C@H]12.[Na+] | 60 µg/mL |
| C[C@@H](O)[C@H]1C(=O)N2C(C(=O)[O-])=C3[C@@H](OCCN=[N+]=[N-])CCC[C@@H]3[C@H]12.[Na+] | 30 µg/mL |
| C[C@@H](O)[C@H]1C(=O)N2C(C(=O)[O-])=C3[C@@H](OCC/N=C/N)CCC[C@@H]3[C@H]12.[Na+] | 120 µg/mL |
| C[C@@H](O)[C@H]1C(=O)N2C(C(=O)[O-])=C3[C@@H](OCCN)CCC[C@@H]3[C@H]12.[Na+] | 120 µg/mL |

In: Lab note: need MIC for `C[C@@H](O)[C@H]1C(=O)N2C(C(=O)[O-])=C3[C@@H](OCCCO)CCC[C@@H]3[C@H]12.[Na+]` on Clostridium perfringens, anyone have it?
Out: 30 µg/mL

In: Field entry: `C[C@@H](O)[C@H]1C(=O)N2C(C(=O)[O-])=C3[C@@H](OCCCN)CCC[C@@H]3[C@H]12.[Na+]`
Out: 60 µg/mL

----------
MIC values by entry
System: Escherichia coli
Assay: In vitro antibacterial activity against Escherichia coli 1850E strain and compared to imipenem
Assay type: functional
Number in µg/mL, nothing else.

Recorded results for 2 compounds are shown here.
| COMPOUND | OUTPUT UNIT | OBSERVED RESULT |
| --- | --- | --- |
| C[C@@H](O)[C@H]1C(=O)N2C(C(=O)O)=C(SCCNC=N)C[C@H]12 [IMIPENEM ANHYDROUS] | µg/mL | 0.5 |
| C[C@@H](O)[C@H]1C(=O)N2C(C(=O)[O-])=C3[C@@H](OCCCO)CCC[C@@H]3[C@H]12.[Na+] | µg/mL | 2 |

Field: next compound
In: Quick check: MIC of `C[C@@H](O)[C@H]1C(=O)N2C(C(=O)[O-])=C3[C@@H](OCCN)CCC[C@@H]3[C@H]12.[Na+]` ?
Out: 0.5

Measured values drawn from ChEMBL document CHEMBL1129149 for this set.
